# assayed_target: recombinant human GREM1 (hGREM1-His; C-terminal 10His tagged, R&D, #5190-GR) (human) (UniProt O60565)
# Sequence (O60565 other isoform, or with tags, fused parts or gaps limits assumed, form in doubt): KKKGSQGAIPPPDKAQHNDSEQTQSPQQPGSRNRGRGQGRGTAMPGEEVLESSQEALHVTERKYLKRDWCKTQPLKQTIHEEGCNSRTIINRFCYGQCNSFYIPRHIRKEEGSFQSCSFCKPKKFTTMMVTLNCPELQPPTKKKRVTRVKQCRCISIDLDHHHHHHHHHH
# experiment_description: BLI Octet, captured mAb, 100 nM GREM1
The following binders are listed with their measured Binding Signal with 30 sec Association (nm) values.
Return type: number; implicit unit nm.

These recorded examples may help you get a feel for the data.
binder: H4H2895N (antibody, human IgG4, V domains shown) VH: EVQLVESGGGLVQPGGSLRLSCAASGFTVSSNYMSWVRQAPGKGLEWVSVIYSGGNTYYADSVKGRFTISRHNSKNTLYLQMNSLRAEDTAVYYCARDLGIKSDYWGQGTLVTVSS VL: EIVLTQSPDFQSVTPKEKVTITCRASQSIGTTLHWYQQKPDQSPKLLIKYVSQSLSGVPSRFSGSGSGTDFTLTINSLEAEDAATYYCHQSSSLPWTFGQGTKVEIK
numeric_value: 0.15
--
binder: H4H6243P (antibody, human IgG4, V domains shown) VH: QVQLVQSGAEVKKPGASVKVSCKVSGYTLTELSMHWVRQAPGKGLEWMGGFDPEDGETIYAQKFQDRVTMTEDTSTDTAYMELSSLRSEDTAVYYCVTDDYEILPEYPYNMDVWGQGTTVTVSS VL: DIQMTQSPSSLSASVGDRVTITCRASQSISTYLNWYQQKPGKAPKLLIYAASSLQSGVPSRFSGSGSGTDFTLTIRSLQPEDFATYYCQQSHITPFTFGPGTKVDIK
numeric_value: 0.3

-- ask What value of Binding Signal with 30 sec Association (nm) has been recorded for this entry: H4H2892N (antibody, human IgG4, V domains shown) VH: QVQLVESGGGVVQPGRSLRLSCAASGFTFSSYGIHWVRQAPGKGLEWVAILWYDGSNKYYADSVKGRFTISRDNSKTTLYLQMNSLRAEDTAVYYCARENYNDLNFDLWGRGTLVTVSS VL: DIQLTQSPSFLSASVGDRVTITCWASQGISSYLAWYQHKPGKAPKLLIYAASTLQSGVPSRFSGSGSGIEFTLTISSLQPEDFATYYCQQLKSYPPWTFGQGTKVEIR
-- reply 0.2
